B1: Twister Ribozyme (parent)
chain: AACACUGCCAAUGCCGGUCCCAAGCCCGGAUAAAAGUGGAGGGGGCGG

variants of: B1; experiment: self-cleavage, relative activity (ratio to wild type); higher = more cleavage; co-transcriptional
Quick rule: self-cleavage of at least 0.2 means TRUE, below that means FALSE.

- variant_notation: "C9A C26G"
  class_name: "FALSE"
- variant_notation: "G29U G36C"
  class_name: "TRUE"
- variant_notation: "A4U C19U"
  class_name: "FALSE"
- variant_notation: "C9G G42U"
  class_name: "FALSE"
- variant_notation: "G24C U37C"
  class_name: "FALSE"
- variant_notation: "A10C G29U"
  class_name: "TRUE"
- variant_notation: "U18G C20G"
  class_name: "FALSE"
- variant_notation: "U6A A35U"
  class_name: "TRUE"
- variant_notation: "A4G G43C"
  class_name: "FALSE"
- variant_notation: "A2G A30U"
  class_name: "TRUE"
- variant_notation: "U18A G38C"
  class_name: "TRUE"
- variant_notation: "C9A A34C"
  class_name: "FALSE"
- variant_notation: "A10U G48C"
  class_name: "TRUE"
- variant_notation: "A4C"
  class_name: "TRUE"
- variant_notation: "A10C U12A"
  class_name: "TRUE"
- variant_notation: "A23C G41A"
  class_name: "FALSE"
- variant_notation: "G39A G42C"
  class_name: "FALSE"
- variant_notation: "A1C G24A"
  class_name: "FALSE"
- variant_notation: "C19A G39A"
  class_name: "FALSE"
- variant_notation: "U37A C46U"
  class_name: "TRUE"
- variant_notation: "U37A G42U"
  class_name: "FALSE"
